System: FXR:RXRa (NR concentration 270 nM, RXRa partner concentration 90 nM)
experimentalProtocol: PBM binding z-score (relative to random genomic background probes); higher = stronger binding; sequences stand for … in GC…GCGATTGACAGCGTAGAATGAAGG
Using PBM binding z-score as the sorting value, the categories are Low: < 0.4; Mid: ≥ 0.4 and < 3; High: ≥ 3

Consider the worked cases shown below.
CCGACTGGGGTAGAAAGGTTACCATACCATCCGG
Low
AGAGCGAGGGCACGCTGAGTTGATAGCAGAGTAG
Mid
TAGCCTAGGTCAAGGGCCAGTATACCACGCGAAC
High
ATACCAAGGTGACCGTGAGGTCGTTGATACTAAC
High
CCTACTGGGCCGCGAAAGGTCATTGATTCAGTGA
High
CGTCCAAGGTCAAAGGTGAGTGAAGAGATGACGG
High
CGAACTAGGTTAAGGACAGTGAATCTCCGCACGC
Mid
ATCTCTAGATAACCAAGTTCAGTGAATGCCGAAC
Low

Class label required: `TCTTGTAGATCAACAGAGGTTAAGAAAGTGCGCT`
Mid

Class label required: `ATATGTAGGATACATCCGGGTCATTCAGGCTATG`
Mid

Class label required: `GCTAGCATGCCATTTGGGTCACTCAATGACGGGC`
Low

Class label required: `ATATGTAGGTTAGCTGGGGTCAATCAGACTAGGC`
High

----------
Tested on: PPARg:RXRa (NR concentration 180 nM, RXRa partner concentration 90 nM)
experimentalProtocol: PBM binding z-score (relative to random genomic background probes); higher = stronger binding; sequences stand for … in GC…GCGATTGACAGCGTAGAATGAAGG
Catalogue of PBM binding z-score readings, one per entry.

In the examples that follow, each entry is paired with its recorded PBM binding z-score.
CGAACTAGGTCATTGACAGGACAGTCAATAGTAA
7.38
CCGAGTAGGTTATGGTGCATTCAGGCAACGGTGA
2.04
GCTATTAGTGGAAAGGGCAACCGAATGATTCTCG
1.88
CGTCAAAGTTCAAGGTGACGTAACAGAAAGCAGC
4.71
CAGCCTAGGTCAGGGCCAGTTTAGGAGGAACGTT
0.55

Reported PBM binding z-score for `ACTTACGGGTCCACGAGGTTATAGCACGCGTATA` : what is it?
1.01

Reported PBM binding z-score for `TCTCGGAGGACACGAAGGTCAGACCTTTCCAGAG` : what is it?
0.782

Reported PBM binding z-score for `GCTGATAGGTCAACTGATGGTCAGCTAAAGCTCG` : what is it?
3.41

Reported PBM binding z-score for `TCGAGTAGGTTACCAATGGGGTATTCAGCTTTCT` : what is it?
0.229

Reported PBM binding z-score for `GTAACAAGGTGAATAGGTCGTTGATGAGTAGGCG` : what is it?
2.64

Reported PBM binding z-score for `ACTTACGGGTCAACGAGGGTATAGCACGCGTATA` : what is it?
5.35

Reported PBM binding z-score for `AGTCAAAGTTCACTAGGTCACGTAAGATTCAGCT` : what is it?
9.33

Reported PBM binding z-score for `TCACATAGGTAAATGCTAGGTGAAAGTCCGATCT` : what is it?
0.475

Reported PBM binding z-score for `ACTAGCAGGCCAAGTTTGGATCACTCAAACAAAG` : what is it?
0.154

Reported PBM binding z-score for `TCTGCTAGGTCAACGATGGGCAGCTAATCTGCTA` : what is it?
2.47

Reported PBM binding z-score for `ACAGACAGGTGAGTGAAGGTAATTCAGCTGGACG` : what is it?
0.499

Reported PBM binding z-score for `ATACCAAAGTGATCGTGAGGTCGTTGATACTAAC` : what is it?
0.235

----------
System: RXRa homodimer (NR concentration 180 nM)
experimentalProtocol: PBM binding z-score (relative to random genomic background probes); higher = stronger binding; sequences stand for … in GC…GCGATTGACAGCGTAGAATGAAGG
Catalogue of PBM binding z-score readings, one per entry.
When you answer, write just the number.

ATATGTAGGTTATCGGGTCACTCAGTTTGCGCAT
3.33
CAAACTAGGTCACAGAGGTCAATGTCCGTGCGTA
6.85
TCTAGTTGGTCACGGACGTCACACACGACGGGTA
0.866
AGAATGAGGTTACCAAAAATCAGGGAAACGCTTG
2.47

Reported PBM binding z-score for `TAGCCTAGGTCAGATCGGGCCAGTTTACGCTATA` : what is it?
1.21

Reported PBM binding z-score for `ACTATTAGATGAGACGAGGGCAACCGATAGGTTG` : what is it?
0.632

----------
Catalogue of PBM binding z-score readings, one per entry.
Tested on: THRa:RXRa (NR concentration 90 nM, RXRa partner concentration 90 nM)
experimentalProtocol: PBM binding z-score (relative to random genomic background probes); higher = stronger binding; sequences stand for … in GC…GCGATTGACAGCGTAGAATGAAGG
When you answer, write just the number.

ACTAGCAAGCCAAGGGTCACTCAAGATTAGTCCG
2.51
TCTCGGAGGACACGAACGTCAGAGCTTTCCAGAG
1.25
ACAGACAGGTGATGAAGGTAGCTCAGGCTATCAT
0.294

Reported PBM binding z-score for `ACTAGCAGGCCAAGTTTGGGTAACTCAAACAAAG` : what is it?
0.525

Reported PBM binding z-score for `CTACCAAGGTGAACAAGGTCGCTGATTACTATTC` : what is it?
3.28

Reported PBM binding z-score for `GATACAGGGTCAGCTAGAGGCCACAGTATGGAAA` : what is it?
3.39

Reported PBM binding z-score for `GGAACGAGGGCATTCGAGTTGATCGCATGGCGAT` : what is it?
3.44

Reported PBM binding z-score for `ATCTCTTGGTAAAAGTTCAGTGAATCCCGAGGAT` : what is it?
0.75

Reported PBM binding z-score for `ATCTCTAGGTAACCAAGTTCAGGGAATGCCGAAC` : what is it?
1.69

Reported PBM binding z-score for `TCTTGTAGATCAATAGAGGTTAAAAAAGTGCGCT` : what is it?
2.21

Reported PBM binding z-score for `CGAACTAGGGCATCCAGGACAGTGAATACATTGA` : what is it?
1.61

Reported PBM binding z-score for `GTACCAAGGTGCATAGGTCGTTGATGAGTAGGCG` : what is it?
0.111

----------
System: RARb homodimer (NR concentration 270 nM)
experimentalProtocol: PBM binding z-score (relative to random genomic background probes); higher = stronger binding; sequences stand for … in GC…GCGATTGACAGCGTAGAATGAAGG
Binary classification by PBM binding z-score, with 0.4 as an inclusive lower bound for 1; all other cases are 0.

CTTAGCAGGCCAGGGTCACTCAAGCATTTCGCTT
1

Check the entry `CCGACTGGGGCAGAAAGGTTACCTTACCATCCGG` : does PBM binding z-score equal or exceed 0.4?
1

Check the entry `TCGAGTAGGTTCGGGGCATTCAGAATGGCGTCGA` : does PBM binding z-score equal or exceed 0.4?
0

Check the entry `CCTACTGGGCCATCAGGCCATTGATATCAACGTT` : does PBM binding z-score equal or exceed 0.4?
1

Check the entry `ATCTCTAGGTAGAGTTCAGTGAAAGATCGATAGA` : does PBM binding z-score equal or exceed 0.4?
1

Check the entry `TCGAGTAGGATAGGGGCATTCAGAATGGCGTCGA` : does PBM binding z-score equal or exceed 0.4?
0

----------
System: PPARg DBDmut:RXRa IVT, anti-PPARg (DBD mutation: PPARg1 K132A/R137A, NR concentration 270 nM, RXRa partner concentration 90 nM)
experimentalProtocol: PBM binding z-score (relative to random genomic background probes); higher = stronger binding; sequences stand for … in GC…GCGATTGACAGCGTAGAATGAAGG
experimentalEndpoint: PBM binding z-score

In the examples that follow, each entry is paired with its recorded PBM binding z-score.
GCATATAAGTAATACAAGGTGAAAGTCCGATTGT
0.743
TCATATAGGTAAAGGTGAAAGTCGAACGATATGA
1.81
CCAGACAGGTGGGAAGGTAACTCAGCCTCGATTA
-0.344

Field: next sequence
Reported PBM binding z-score for `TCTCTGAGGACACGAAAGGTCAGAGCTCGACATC` : what is it?
0.453

----------
Tested on: VDR homodimer (NR concentration 270 nM)
experimentalProtocol: PBM binding z-score (relative to random genomic background probes); higher = stronger binding; sequences stand for … in GC…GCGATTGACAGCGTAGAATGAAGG
Binary classification by PBM binding z-score, with 0.7 as an inclusive lower bound for Satisfied; all other cases are Not satisfied.

Consider the worked cases shown below.
CCTACTGGGCCACGAATGGTCATTGATTCAGTGA
Not satisfied
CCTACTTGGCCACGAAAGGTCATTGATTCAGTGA
Satisfied
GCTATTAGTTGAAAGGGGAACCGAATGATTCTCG
Not satisfied
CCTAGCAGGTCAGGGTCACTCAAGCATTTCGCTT
Satisfied
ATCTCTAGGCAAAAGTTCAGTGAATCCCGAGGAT
Satisfied
TCGTATAGGTAAAAGGTGAAAGTCGGTGTGGTAA
Not satisfied
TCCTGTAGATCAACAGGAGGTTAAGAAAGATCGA
Not satisfied
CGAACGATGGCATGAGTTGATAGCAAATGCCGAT
Not satisfied

Check the entry `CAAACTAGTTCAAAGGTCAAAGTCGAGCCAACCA` : does PBM binding z-score equal or exceed 0.7?
Satisfied

Check the entry `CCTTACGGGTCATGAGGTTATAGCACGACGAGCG` : does PBM binding z-score equal or exceed 0.7?
Satisfied

Check the entry `TGAATGAGGTTAAAGATCAGGTAACGTGGCGTCG` : does PBM binding z-score equal or exceed 0.7?
Not satisfied
